test system: L1210 leukemia ip in BDF1 mice, survival T/C; test: NCI In Vivo Anticancer Drug Screen. Data for tumor model L1210 Leukemia (intraperitoneal) in B6D2F1 (BDF1) mice; conditions: endpoint: mean survival time; dose: 200.0 mg/kg/injection; schedule: Q01DX001 (ip); vehicle: saline with Tween-80; higher = longer survival
Inconclusive results and toxic doses are left out.
testReadout: T/C

Solved entries:
> print(dat)
                                   molecule  testreadout   reportedresult
1                   COC(=O)c1ccc(C(C)=O)cc1          T/C  97 % of control
2  CCCCCCCCCCCCCCCCCC(CC)c1ccccc1 (stereo not given)          T/C  94 % of control

Dear colleague, could you send me T/C for each of the items below? Thanks.
1. CC1(N(O)C(=O)NC2CCCCC2)CCCCC1
2. CCCP(=O)(CCC)C1CCCCC1
3. CCCN(C)/N=N/c1[nH]ncc1C(N)=O
4. CCCCCCCCCCCC(=O)N1CCCCC1
5. NC1CC2CCC1C2 (stereo not given)
6. O=C(/C=C(\CBr)c1ccc(-c2ccccc2)cc1)c1ccccc1
7. COC(=O)c1ccc(N(C)Cc2cnc3nc(N)nc(SCc4ccccc4)c3n2)cc1
8. Brc1ccc2[nH]c3c(c2c1)CSCC3

A.
97 % of control
98 % of control
115 % of control
97 % of control
103 % of control
91 % of control
94 % of control
111 % of control

Dear colleague, could you send me T/C for each of the items below? Thanks.
1. O=C(Nc1ccccc1)Nc1ccc([N+](=O)[O-])cc1[N+](=O)[O-]
2. CCOP(=O)(OCC)C(=Cc1ccccc1)P(=O)(OCC)OCC
3. CCOC(=O)Nc1cc(NCC(O)CN(C)c2ccc(OC)cc2)c([N+](=O)[O-])c(N)n1 (stereo not given)
4. CC(C)(C)C(=C=C=O)C#N
5. CCc1cccc(CC)c1NC(=O)Nc1cc(Cl)ccc1C

A.
["92 % of control", "103 % of control", "93 % of control", "94 % of control", "90 % of control"]

* * *

Hi there, I'd appreciate the recorded T/C for every entry that follows.
test system: L1210 leukemia ip in BDF1 mice, survival T/C; assay: NCI In Vivo Anticancer Drug Screen. Data for tumor model L1210 Leukemia (intraperitoneal) in B6D2F1 (BDF1) mice; conditions: endpoint: mean survival time; dose: 200.0 mg/kg/injection; schedule: Q04DX003 (ip); vehicle: saline; higher = longer survival
Inconclusive results and toxic doses are left out.

Dear colleague, could you send me T/C for each of the items below? Thanks.
1. CCOC(=O)C(N)=S
2. CCOC(CCc1cnc[nH]c1=O)OCC
3. C1=NCCCN1
4. CC(=O)N(C)c1ccc(N)cc1
5. CCC(=O)/C=C/C1=C(C)CCCC1(C)C

A.
1. 96 % of control
2. 97 % of control
3. 100 % of control
4. 105 % of control
5. 97 % of control

Dear colleague, could you send me T/C for each of the items below? Thanks.
1. COC(=O)c1ccccc1N=NNc1ccc2c(=O)c3ccccc3[nH]c2c1
2. Cc1cc(NC(=O)NCc2ccc(N)cc2)ccc1S(=O)(=O)F

A.
1: 86 % of control; 2: 96 % of control

* * *

test system: L1210 leukemia ip in BDF1 mice, survival T/C; experiment: NCI In Vivo Anticancer Drug Screen. Data for tumor model L1210 Leukemia (intraperitoneal) in B6D2F1 (BDF1) mice; details: endpoint: mean survival time; dose: 12.5 mg/kg/injection; schedule: Q01DX009 (ip); vehicle: Klucel (hydroxypropylcellulose) (HPC); higher = longer survival
Inconclusive results and toxic doses are left out.
testReadout: T/C

> print(dat)
                                   molecule    reportedresult
1                     ClC(Cl)(Cl)c1nccnc1Br  111 % of control
2  NC(=O)N1CCN(CCCN2c3ccccc3Sc3cc(Cl)ccc32)CC1  110 % of control
3  O=C1c2cccc3cc([N+](=O)[O-])cc(c23)C(=O)N1CCCN(CCO)CCO  104 % of control
4         Clc1nc2nc(C(Cl)(Cl)Cl)[nH]c2nc1Cl  102 % of control
5         O=C1C=CC(=O)N1C(c1ccccc1)c1ccccc1  102 % of control

Dear colleague, could you send me T/C for each of the items below? Thanks.
1. CC/C(=C\c1ccc(Cl)cc1)[N+](=O)[O-]
2. c1cnc[c]([Hg][c]2cccnc2)c1
3. Cc1cc(C)nc(NC(N)=NCCc2ccccc2)n1
4. NC(=S)N/N=C1\COC(C(F)(F)F)(C(F)(F)F)C1
5. O=C(c1ccccc1)C(O)(CC(c1ccccc1)[P+](c1ccccc1)(c1ccccc1)c1ccccc1)c1ccccc1 (stereo unspecified)

A.
1: 98 % of control; 2: 91 % of control; 3: 101 % of control; 4: 100 % of control; 5: 107 % of control

Q. Recall the recorded T/C for CCCCCCCCCOc1ccc(C=Nc2ccc(CC)cc2)cc1 with L1210 leukemia ip in BDF1 mice, survival T/C and state it.
A. 92 % of control

* * *

tested on: L1210 leukemia ip in BDF1 mice, survival T/C; test: NCI In Vivo Anticancer Drug Screen. Data for tumor model L1210 Leukemia (intraperitoneal) in B6D2F1 (BDF1) mice; settings: endpoint: mean survival time; dose: 200.0 mg/kg/injection; schedule: Q01DX009 (ip); vehicle: saline; higher = longer survival
Toxic doses and inconclusive results are not listed.
testReadout: T/C

Solved entries:
> print(dat)
                                   molecule                           systemundertest    reportedresult
1                        CCOC(=O)CCN1CCCCC1  L1210 leukemia ip in BDF1 mice, survival T/C   98 % of control
2                               NCc1ccccc1F  L1210 leukemia ip in BDF1 mice, survival T/C   90 % of control
3   O=C(Nc1cc([N+](=O)[O-])ccc1O)c1ccccc1Cl  L1210 leukemia ip in BDF1 mice, survival T/C   97 % of control
4  NC(Cn1ccc(=O)c(O)c1)C(=O)O (centres undefined)  L1210 leukemia ip in BDF1 mice, survival T/C  102 % of control
5              NC(=O)c1ccc[n+](Cc2ccccc2)c1  L1210 leukemia ip in BDF1 mice, survival T/C  107 % of control
6  CC(O)c1ccc[n+]([O-])c1 (centres undefined)  L1210 leukemia ip in BDF1 mice, survival T/C   96 % of control

Dear colleague, could you send me T/C for each of the items below? Thanks.
1. O=C1c2cccc3c2C2(O)c4c1cccc4C(=O)c1cccc(c12)C3=O
2. O=S(=O)(c1ccc(Cl)cc1)c1ccc(Cl)cc1
3. Cc1cc(NC(=O)NCc2ccc(N)cc2)ccc1S(=O)(=O)F

A.
101 % of control
95 % of control
114 % of control

* * *

Hi there, I'd appreciate the recorded T/C for every entry that follows.
Test system: L1210 leukemia ip in BDF1 mice, survival T/C
Assay: NCI In Vivo Anticancer Drug Screen. Data for tumor model L1210 Leukemia (intraperitoneal) in B6D2F1 (BDF1) mice
Settings: endpoint: mean survival time; dose: 200.0 mg/kg/injection; schedule: Q04DX002 (ip); vehicle: Klucel (hydroxypropylcellulose) (HPC); higher = longer survival
Description: The antitumor activity of compounds was measured in mice bearing transplantable tumors. Survival or tumor size were measured and the results are expressed as the measurement made in the treated group (T) divided by the measurement made in the vehicle treated control group (C). The tumor model used in this assay is L1210 Leukemia (intraperitoneal) in B6D2F1 (BDF1) mice
Inconclusive results and toxic doses are left out.

Solved entries:
> print(dat)
                                    compound    reportedresult
 1                 C=COCCN1C(=O)c2ccccc2C1=O  120 % of control
 2           O=C1OCC/C1=C\NCCCN/C=C1\CCOC1=O  108 % of control
 3        COc1ccc(NC(=O)NCc2ccc(C)c(C)c2)cc1   96 % of control
 4     Cc1cc(C)c(NC(=O)c2ccc(Cl)cc2Cl)c(C)c1  106 % of control
 5              CCc1ccccc1NC(=O)Nc1cc(C)ccn1  102 % of control
 6            COC(=O)C(=O)CC(=O)c1ccc(Cl)cc1  106 % of control
 7          COC(=O)C1=C(\O)CCCC/C=C\1C(=O)OC   97 % of control
 8           O=C(Nc1cccc(Cl)c1)Nc1cccc(Br)c1   88 % of control
 9                O=S(=O)(CCCl)Cc1ccc(Cl)cc1   93 % of control
10  Cc1ccc(S(=O)(=O)N/N=C2/CC3CCCCCCC23)cc1 (stereo unspecified)  111 % of control

Dear colleague, could you send me T/C for each of the items below? Thanks.
1. CS(=O)(=O)OC1COC(c2ccccc2)OC1C1OC(c2ccccc2)OCC1OS(C)(=O)=O (stereo unspecified)
2. O=C(O)COc1ccccc1F

A.
1. 109 % of control
2. 98 % of control

Dear colleague, could you send me T/C for each of the items below? Thanks.
1. Cn1c(Cl)c(/C=N/NC(N)=S)c2ccccc21
2. COc1ccc2c(CSc3nc(N)nc4nc[nH]c34)cc(=O)oc2c1
3. Nc1ccc(C(=O)O)cc1[N+](=O)[O-]
4. COC1OC2COc3ccccc3OC2C2C1N2C(C)=O (stereo unspecified)

A.
1. 87 % of control
2. 123 % of control
3. 100 % of control
4. 98 % of control
